- assayed-system: human P2X2/3 receptor (Homo sapiens (Human), UniProt P56373+Q9UBL9)
- Sequence (P56373 whole entry): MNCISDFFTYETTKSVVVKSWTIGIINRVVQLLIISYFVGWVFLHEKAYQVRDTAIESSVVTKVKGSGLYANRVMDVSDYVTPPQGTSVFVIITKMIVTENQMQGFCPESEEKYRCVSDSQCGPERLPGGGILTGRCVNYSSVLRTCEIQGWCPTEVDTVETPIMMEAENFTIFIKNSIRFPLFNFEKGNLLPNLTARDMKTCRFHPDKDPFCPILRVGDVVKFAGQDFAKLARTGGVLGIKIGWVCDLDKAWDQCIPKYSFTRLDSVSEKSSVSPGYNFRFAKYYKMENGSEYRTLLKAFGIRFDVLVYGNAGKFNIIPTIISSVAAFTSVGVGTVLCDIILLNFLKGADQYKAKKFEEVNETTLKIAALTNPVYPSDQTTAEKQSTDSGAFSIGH
- Sequence (Q9UBL9 whole entry): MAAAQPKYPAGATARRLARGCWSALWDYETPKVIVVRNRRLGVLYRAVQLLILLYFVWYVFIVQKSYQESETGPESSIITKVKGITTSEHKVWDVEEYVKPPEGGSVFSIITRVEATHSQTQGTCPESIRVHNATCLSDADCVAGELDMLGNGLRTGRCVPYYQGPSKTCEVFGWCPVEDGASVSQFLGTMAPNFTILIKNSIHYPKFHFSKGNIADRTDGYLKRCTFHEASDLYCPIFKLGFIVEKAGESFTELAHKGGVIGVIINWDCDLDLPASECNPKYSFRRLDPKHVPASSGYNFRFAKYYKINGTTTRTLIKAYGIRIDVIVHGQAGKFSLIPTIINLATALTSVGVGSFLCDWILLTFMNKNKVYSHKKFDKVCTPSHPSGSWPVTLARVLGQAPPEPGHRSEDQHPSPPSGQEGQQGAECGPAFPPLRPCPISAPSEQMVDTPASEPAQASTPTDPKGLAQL
- method-description: Intracellular calcium measurement (FLIPR, Fluo-4) of antagonist activity at human P2X2/3 receptors
- Assay type: cell-based
- reported-conditions: human P2X2/3, FLIPR calcium assay, agonist α,β-Me-ATP; read-out: hP2X2/3 IC50
# note: boundary value 0.4 µM maps to Not fulfilled; IC50 below it maps to Fulfilled

Study these solved cases before continuing.
1) Cc1cnc(-c2cc(OC3CC4(C3)CN(C)C4)cc(C(=O)N[C@H](C)c3cnc(C(F)(F)F)nc3)c2)s1
Not fulfilled
2) Cc1cnc(-c2cc(OCC(C)(C)O)cc(C(=O)N[C@H](C)c3cnc(C(F)(F)F)nc3)c2)s1
Fulfilled

# input In plain terms, does `Cc1ccc(CNC(=O)c2cc(OC[C@@H]3CCCO3)cc(-c3ncc(C)s3)c2)nn1` come in under 0.4 µM for IC50?
# output Not fulfilled

----------
- assayed-system: human P2X2/3 receptor (Homo sapiens (Human), UniProt P56373+Q9UBL9)
- method-description: Intracellular calcium measurement (FLIPR, Fluo-4) of antagonist activity at human P2X2/3 receptors
- Assay type: cell-based
- reported-conditions: human P2X2/3, FLIPR calcium assay, agonist α,β-Me-ATP; read-out: hP2X2/3 IC50
- Method: Intracellular Calcium Measurement to Assess Antagonist Activity at Human P2X3 and Human P2X2/3 Receptors A fluorescent imaging plate reader (FLEX/FLIPR station; Molecular Devices) was used to monitor intracellular calcium levels using the calcium-chelating dye Fluo-4 (Molecular Probes). […] The fluorescence was measured for an interval of 90 sec at 2 sec intervals and analyzed based on the increase in peak relative fluorescence units (RFU) compared to the basal fluorescence. […]
Parameter IC50: see the listing below.
Give the value, in units of nM, as a plain number.

Would you please look over these solved cases?
1. Cc1cnc(-c2cc(Oc3nnc(C)s3)cc(C(=O)N[C@H](C)c3ccc(C(F)(F)F)nc3)c2)s1
607
2. C[C@@H](NC(=O)c1cc(OC[C@H]2CCOC2)cc(-c2ncc(Cl)s2)c1)c1cnc(C(F)(F)F)nc1
411

# input Under human P2X2/3 receptor (Homo sapiens (Human), UniProt P56373+Q9UBL9): report IC50 of `CCc1cnc(-c2cc(O[C@@H]3CCOC3)cc(C(=O)N[C@H](C)c3cnc(C(F)(F)F)nc3)c2)s1` .
# output 22

# input Under human P2X2/3 receptor (Homo sapiens (Human), UniProt P56373+Q9UBL9): report IC50 of `Cc1cnc(-c2cc(OC[C@H]3CN(C)CCO3)cc(C(=O)N[C@H](C)c3ccc(C(F)F)nc3)c2)s1` .
# output 328

# input Under human P2X2/3 receptor (Homo sapiens (Human), UniProt P56373+Q9UBL9): report IC50 of Cc1cnc(-c2cc(OC3COC3)cc(C(=O)NC(C)c3nnc(C(F)(F)F)s3)c2)s1 (single isomer, unassigned) [Example 194] .
# output 579

----------
Parameter log10(IC50): see the listing below.
- assayed-system: human P2X3 receptor (Homo sapiens (Human))
- method-description: Intracellular calcium measurement (FLIPR, Fluo-4) of antagonist activity at human P2X3 receptors
- Assay type: cell-based
- reported-conditions: human P2X3, FLIPR calcium assay, agonist α,β-Me-ATP; read-out: hP2X3 IC50
Could you please treat all values as log10 of IC50 in nM?

Would you please look over these solved cases?
1. CC[C@@H](NC(=O)c1cc(OC2CCOCC2)cc(-c2ncc(C)s2)c1)c1cnc(C(F)(F)F)nc1
2.05
2. Cc1cnc(-c2cc(OC[C@H]3COCCN3C)cc(C(=O)N[C@H](C)c3ccc(C(F)(F)F)nn3)c2)s1
1.26
3. CCN1CCO[C@@H](COc2cc(C(=O)N[C@H](C)c3cnc(C(F)(F)F)nc3)cc(-c3ncc(C)s3)c2)C1
1.23
4. CCc1cnc(-c2cc(OC[C@H]3CCCO3)cc(C(=O)N[C@H](C)c3cnc(C(F)(F)F)nc3)c2)s1
0.30
5. Cc1cnc(-c2cc(OC[C@@H]3COCCN3C)cc(C(=O)N[C@H](C)c3cnc(C(F)(F)F)nc3)c2)s1
0.90

# input Respond only with log10(IC50) recorded for `Cc1cnc(-c2cc(OC[C@@H]3CN(C)C(=O)O3)cc(C(=O)N[C@H](C)c3cnc(C(F)(F)F)nc3)c2)s1`
# output 1.18

# input Respond only with log10(IC50) recorded for `CCc1cnc(-c2cc(OC[C@@H]3CCCO3)cc(C(=O)N[C@H](C)c3cnc(C(F)(F)F)nc3)c2)s1`
# output 0.60

----------
Parameter pIC50: see the listing below.
- assayed-system: human P2X2/3 receptor (Homo sapiens (Human), UniProt P56373+Q9UBL9)
- method-description: Intracellular calcium measurement (FLIPR, Fluo-4) of antagonist activity at human P2X2/3 receptors
- Type: cell-based
- reported-conditions: human P2X2/3, FLIPR calcium assay, agonist α,β-Me-ATP; read-out: hP2X2/3 IC50
Notebook: values listed as pIC50 are -log10 of the concentration (mol/L).

1) C[C@@H](NC(=O)c1cc(OC2CCOCC2)cc(-c2ncc(C3CCC3)s2)c1)c1cnc(C(F)(F)F)nc1 [Example 238]
6.40
2) CCc1cnc(-c2cc(OC[C@H]3CCOC3)cc(C(=O)N[C@H](C)c3cnc(C(F)(F)F)nc3)c2)s1 [Example 278]
7.64
3) C[C@@H](NC(=O)c1cc(OCC2CCOCC2)cc(-c2ncc(C3CCC3)s2)c1)c1cnc(C(F)(F)F)nc1 [Example 120]
6.98

# input Respond only with pIC50 recorded for Cc1cc(Oc2cc(C(=O)N[C@H](C)c3ccc(C(F)(F)F)nn3)cc(-c3ncc(C)s3)c2)ccn1 [Example 105]
# output 7.41

# input Respond only with pIC50 recorded for Cc1cnc(-c2cc(OCC3(N(C)C)CC3)cc(C(=O)N[C@H](C)c3cnc(C(F)(F)F)nc3)c2)s1 [Example 213]
# output 7.09

# input Respond only with pIC50 recorded for Cc1ccc(CNC(=O)c2cc(OCC3CCOCC3)cc(-c3ncc(C(F)(F)F)s3)c2)nn1 [Example 118]
# output 5.95

# input Respond only with pIC50 recorded for CCc1cnc(-c2cc(OC[C@H]3CNCCO3)cc(C(=O)N[C@H](C)c3ccc(C(F)(F)F)nn3)c2)s1 [Example 415]
# output 5.66

# input Respond only with pIC50 recorded for Cc1cnc(-c2cc(OC[C@H]3CN(C)C(=O)O3)cc(C(=O)N[C@H](C)c3cnc(C(F)(F)F)nc3)c2)s1 [Example 398]
# output 5.75

----------
- assayed-system: human P2X3 receptor (Homo sapiens (Human))
- method-description: Intracellular calcium measurement (FLIPR, Fluo-4) of antagonist activity at human P2X3 receptors
- Format: cell-based
- reported-conditions: human P2X3, FLIPR calcium assay, agonist α,β-Me-ATP; read-out: hP2X3 IC50
quantity-measured: pIC50
Notebook: values listed as pIC50 are -log10 of the concentration (mol/L).

Would you please look over these solved cases?
1. Cc1ccc([C@@H](C)NC(=O)c2cc(OC3CCN(CC(F)(F)F)CC3)cc(-c3ncc(C)s3)c2)nn1
8.10
2. Cc1cnc(-c2cc(O[C@H]3CC[C@H]4[C@H]3OCCN4C)cc(C(=O)N[C@H](C)c3cnc(C(F)(F)F)nc3)c2)s1
8.70
3. Cc1cnc(-c2cc(OC3CCOCC3)cc(C(=O)N[C@H](C)c3cnc(C(F)(F)F)nc3)c2)s1
8.00
4. CCc1cnc(-c2cc(OC[C@@H]3CCCO3)cc(C(=O)N[C@H](C)c3ccc(C(F)(F)F)nn3)c2)s1
8.22
5. Cc1cnc(-c2cc(O[C@@H]3CCCN(C(=O)OC(C)(C)C)C3)cc(C(=O)N[C@H](C)c3cnc(C(F)(F)F)nc3)c2)s1
8.15
6. Cc1cnc([C@@H](C)NC(=O)c2cc(OC[C@@H]3CCCO3)cc(-c3ncc(C)s3)c2)cn1
7.60

Then there is this compound:
# input Respond only with pIC50 recorded for `Cc1cnc(-c2cc(OC[C@@H]3COCCO3)cc(C(=O)N[C@H](C)c3ccc(C(F)(F)F)nn3)c2)s1`
# output 7.20

----------
- assayed-system: human P2X3 receptor (Homo sapiens (Human))
- method-description: Intracellular calcium measurement (FLIPR, Fluo-4) of antagonist activity at human P2X3 receptors
- Format: cell-based
- reported-conditions: human P2X3, FLIPR calcium assay, agonist α,β-Me-ATP; read-out: hP2X3 IC50
Parameter pIC50: see the listing below.
Notebook: values listed as pIC50 are -log10 of the concentration (mol/L).

Would you please look over these solved cases?
1. Cc1cnc(-c2cc(OC3CCNC(C(F)(F)F)C3)cc(C(=O)N[C@H](C)c3cnc(C(F)(F)F)nc3)c2)s1 (single isomer, unassigned) [Example 208]
8.70
2. Cc1ccc([C@@H](C)NC(=O)c2cc(O[C@H]3CCOC3)cc(-c3ncc(Cl)s3)c2)nn1 [Example 322]
7.31
3. Cc1ncc([C@@H](C)NC(=O)c2cc(OC3COC3)cc(-c3ncc(C)s3)c2)cn1 [Example 43]
7.30

# input Respond only with pIC50 recorded for Cc1cnc(-c2cc(O[C@@H]3C[C@H]4CC[C@@H](C3)N4C)cc(C(=O)N[C@H](C)c3cnc(C(F)(F)F)nc3)c2)s1 [Example 217]
# output 7.60
